# System: HEK-293T
# experimental_details: Multiplex assay against HEK293T
# Format: toxicity, cell-based
# assay_setup: human, 24 h, 1 µM, compound concentration 1 uM, replicate 1
readout: Population Normal (%)
# number only, unit % dropped from output

Record lookup: for HEK-293T, what Population Normal (%) belongs to Cc1c(P(=S)(c2ccccc2)c2ccccc2)n2ccccc2[n+]1C/C=C/c1ccccc1.[Br-] ?
80

Record lookup: for HEK-293T, what Population Normal (%) belongs to C=CC(=O)Nc1cc(-n2c(=O)ccc3cnc4ccc(-c5ccc(NS(C)(=O)=O)cc5)cc4c32)ccc1C ?
80

Record lookup: for HEK-293T, what Population Normal (%) belongs to CCCCCNC(=N)N/N=C/c1c[nH]c2ccc(OC)cc12.O=C(O)/C=C\C(=O)O [TEGASEROD MALEATE] ?
86

Record lookup: for HEK-293T, what Population Normal (%) belongs to Cc1c(Nc2ccc(S(=O)(=O)N3CCN(C)CC3)cc2F)nc2ccc(Nc3cnn(C4CC4)c3)cn2c1=O ?
88

Record lookup: for HEK-293T, what Population Normal (%) belongs to Cc1ccc(NC(=O)Nc2cc(C(F)(F)F)ccc2F)cc1Nc1ccc2c(c1)NC(=O)/C2=C\c1ccc[nH]1 ?
85

Others:
Record lookup: for HEK-293T, what Population Normal (%) belongs to CCCCN(CC)c1nc(C)nc2c1c(C)cn2-c1c(C)cc(C)cc1C.Cl ?
86

Record lookup: for HEK-293T, what Population Normal (%) belongs to Cc1c(Nc2ccc(S(=O)(=O)N3CCN(C)CC3)cc2F)nc2ccc(-c3cnn(C4CC4)c3)cn2c1=O ?
94

Record lookup: for HEK-293T, what Population Normal (%) belongs to N#CCNC(=O)c1ccc(-c2ccnc(Nc3ccc(N4CCOCC4)cc3)n2)cc1 ?
90

Record lookup: for HEK-293T, what Population Normal (%) belongs to Cl.NC[C@@H]1O[C@H](C23CC4CC(CC(C4)C2)C3)Cc2c1ccc(O)c2O ?
86

Record lookup: for HEK-293T, what Population Normal (%) belongs to Oc1cccc(-c2nc(N3CCOCC3)c3oc4ncccc4c3n2)c1 ?
77

Record lookup: for HEK-293T, what Population Normal (%) belongs to CC[C@@H]1C(=O)N(C)c2cnc(Nc3ccc(C(=O)NC4CCN(C)CC4)cc3OC)nc2N1C1CCCC1 ?
87

Record lookup: for HEK-293T, what Population Normal (%) belongs to CC(C)C[C@H](NC(=O)[C@H](Cc1ccccc1)NC(=O)CNC(=O)CNC(=O)[C@@H](N)Cc1ccc(O)cc1)C(=O)O ?
80

Record lookup: for HEK-293T, what Population Normal (%) belongs to NC(=O)c1ccc2nc(-c3ccc(C4(N)CCC4)cc3)c(-c3ccccc3)n2n1 ?
84

====

# System: Fibroblast
# experimental_details: Multiplex assay against human fibroblast
# Type: toxicity, cell-based
# assay_setup: 12 h, 1 µM, compound concentration 1 uM, replicate 2
Threshold rule: Total Cell Count greater than or equal to 70 is T; below that, F.

Is Total Cell Count for Cl.Cn1c2c(c3ccc(Cl)c(Cl)c31)C(C#N)C1(CCNCC1)NC2=O (configuration not stated) at or above 70?
T

Others:
Is Total Cell Count for N#Cc1cccc(C(=O)Nc2cc(-c3ccccc3)nn2-c2ccccc2)c1 at or above 70?
F

Is Total Cell Count for CN(c1cc(C(F)(F)F)nc(OCCC(=O)O)n1)c1cccc2c1CCC2 at or above 70?
F

Source of measurements: ChEMBL document CHEMBL4689842
